System: ULK3 (human) (UniProt Q6PHR2)
Sequence (Q6PHR2 whole entry, looked up): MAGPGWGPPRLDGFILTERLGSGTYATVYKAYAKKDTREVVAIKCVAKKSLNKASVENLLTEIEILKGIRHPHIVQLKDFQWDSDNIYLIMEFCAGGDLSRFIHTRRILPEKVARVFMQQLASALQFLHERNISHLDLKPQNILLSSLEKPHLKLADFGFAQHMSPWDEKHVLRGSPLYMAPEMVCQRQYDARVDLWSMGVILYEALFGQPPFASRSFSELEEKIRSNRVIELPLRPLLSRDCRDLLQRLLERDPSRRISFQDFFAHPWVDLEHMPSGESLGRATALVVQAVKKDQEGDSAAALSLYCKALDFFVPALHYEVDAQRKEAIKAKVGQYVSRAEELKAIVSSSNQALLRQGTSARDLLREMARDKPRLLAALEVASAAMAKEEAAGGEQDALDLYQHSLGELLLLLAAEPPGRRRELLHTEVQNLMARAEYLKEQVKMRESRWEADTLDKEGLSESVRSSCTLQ
Protocol details: KINOMEscan competition binding
Protocol conditions: compound 10.0 µM
Attribute measured: kinase still bound, per cent of control (%)

These recorded examples may help you get a feel for the data.
- Cn1cc(C2=C(c3ccc(Cl)cc3Cl)C(=O)NC2=O)c2ccccc21: 100
- COc1ccc(CNC(=O)Nc2ncc([N+](=O)[O-])s2)cc1: 95

[A] O=C1Nc2cc(Br)ccc2/C1=C1/Nc2ccccc2/C1=N\O
[B] Cc1cnc(-c2cnc(NCCNc3ccc(C#N)cn3)nc2-c2ccc(Cl)cc2Cl)[nH]1
Ask: Which of the two items, A and B , has the greater recorded kinase still bound, per cent of control? Return value: the label identifying the chosen record.
Reply: B

---

System: STK35 (human)
Protocol details: KINOMEscan competition binding
Protocol conditions: compound 10.0 µM
Attribute measured: kinase still bound, per cent of control (%)

These recorded examples may help you get a feel for the data.
- Cc1cnc(-c2cnc(NCCNc3ccc(C#N)cn3)nc2-c2ccc(Cl)cc2Cl)[nH]1: 100
- Cn1cc(C2=C(c3ccc(Cl)cc3Cl)C(=O)NC2=O)c2ccccc21: 94

[P] O=C1Nc2cc(Br)ccc2/C1=C1/Nc2ccccc2/C1=N\O
[Q] COc1ccc(CNC(=O)Nc2ncc([N+](=O)[O-])s2)cc1
Ask: From the items above, decide which of P and Q has the lower kinase still bound, per cent of control reading. Return value: the label identifying the chosen record.
Reply: P

---

System: MAP2K3 (human) (UniProt P46734)
Sequence (P46734 whole entry, looked up): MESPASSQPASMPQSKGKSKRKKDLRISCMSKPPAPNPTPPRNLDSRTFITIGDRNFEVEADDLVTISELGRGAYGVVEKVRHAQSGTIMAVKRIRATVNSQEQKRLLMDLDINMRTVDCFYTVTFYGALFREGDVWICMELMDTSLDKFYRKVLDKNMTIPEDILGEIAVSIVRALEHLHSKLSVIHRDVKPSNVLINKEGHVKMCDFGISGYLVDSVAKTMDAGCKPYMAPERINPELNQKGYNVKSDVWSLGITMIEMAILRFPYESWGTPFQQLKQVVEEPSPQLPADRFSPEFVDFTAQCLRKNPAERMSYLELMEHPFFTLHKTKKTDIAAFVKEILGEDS
Protocol details: KINOMEscan competition binding
Protocol conditions: compound 10.0 µM
Attribute measured: kinase still bound, per cent of control (%)

[I] COc1ccc(CNC(=O)Nc2ncc([N+](=O)[O-])s2)cc1
[II] O=C1Nc2cc(Br)ccc2/C1=C1/Nc2ccccc2/C1=N\O
Ask: From the items above, decide which of I and II has the lower kinase still bound, per cent of control reading. Return value: the label identifying the chosen record.
Reply: II

---

System: WEE1 (human)
Protocol details: KINOMEscan competition binding
Protocol conditions: compound 10.0 µM
Attribute measured: kinase still bound, per cent of control (%)

* COc1ccc(CNC(=O)Nc2ncc([N+](=O)[O-])s2)cc1 | 80
* Cc1cnc(-c2cnc(NCCNc3ccc(C#N)cn3)nc2-c2ccc(Cl)cc2Cl)[nH]1 | 98
* Cn1cc(C2=C(c3ccc(Cl)cc3Cl)C(=O)NC2=O)c2ccccc21 | 80
* O=C1Nc2cc(Br)ccc2/C1=C1/Nc2ccccc2/C1=N\O | 87

---

System: UniProtKB Q8NEV4
Sequence (Q8NEV4 whole entry, looked up): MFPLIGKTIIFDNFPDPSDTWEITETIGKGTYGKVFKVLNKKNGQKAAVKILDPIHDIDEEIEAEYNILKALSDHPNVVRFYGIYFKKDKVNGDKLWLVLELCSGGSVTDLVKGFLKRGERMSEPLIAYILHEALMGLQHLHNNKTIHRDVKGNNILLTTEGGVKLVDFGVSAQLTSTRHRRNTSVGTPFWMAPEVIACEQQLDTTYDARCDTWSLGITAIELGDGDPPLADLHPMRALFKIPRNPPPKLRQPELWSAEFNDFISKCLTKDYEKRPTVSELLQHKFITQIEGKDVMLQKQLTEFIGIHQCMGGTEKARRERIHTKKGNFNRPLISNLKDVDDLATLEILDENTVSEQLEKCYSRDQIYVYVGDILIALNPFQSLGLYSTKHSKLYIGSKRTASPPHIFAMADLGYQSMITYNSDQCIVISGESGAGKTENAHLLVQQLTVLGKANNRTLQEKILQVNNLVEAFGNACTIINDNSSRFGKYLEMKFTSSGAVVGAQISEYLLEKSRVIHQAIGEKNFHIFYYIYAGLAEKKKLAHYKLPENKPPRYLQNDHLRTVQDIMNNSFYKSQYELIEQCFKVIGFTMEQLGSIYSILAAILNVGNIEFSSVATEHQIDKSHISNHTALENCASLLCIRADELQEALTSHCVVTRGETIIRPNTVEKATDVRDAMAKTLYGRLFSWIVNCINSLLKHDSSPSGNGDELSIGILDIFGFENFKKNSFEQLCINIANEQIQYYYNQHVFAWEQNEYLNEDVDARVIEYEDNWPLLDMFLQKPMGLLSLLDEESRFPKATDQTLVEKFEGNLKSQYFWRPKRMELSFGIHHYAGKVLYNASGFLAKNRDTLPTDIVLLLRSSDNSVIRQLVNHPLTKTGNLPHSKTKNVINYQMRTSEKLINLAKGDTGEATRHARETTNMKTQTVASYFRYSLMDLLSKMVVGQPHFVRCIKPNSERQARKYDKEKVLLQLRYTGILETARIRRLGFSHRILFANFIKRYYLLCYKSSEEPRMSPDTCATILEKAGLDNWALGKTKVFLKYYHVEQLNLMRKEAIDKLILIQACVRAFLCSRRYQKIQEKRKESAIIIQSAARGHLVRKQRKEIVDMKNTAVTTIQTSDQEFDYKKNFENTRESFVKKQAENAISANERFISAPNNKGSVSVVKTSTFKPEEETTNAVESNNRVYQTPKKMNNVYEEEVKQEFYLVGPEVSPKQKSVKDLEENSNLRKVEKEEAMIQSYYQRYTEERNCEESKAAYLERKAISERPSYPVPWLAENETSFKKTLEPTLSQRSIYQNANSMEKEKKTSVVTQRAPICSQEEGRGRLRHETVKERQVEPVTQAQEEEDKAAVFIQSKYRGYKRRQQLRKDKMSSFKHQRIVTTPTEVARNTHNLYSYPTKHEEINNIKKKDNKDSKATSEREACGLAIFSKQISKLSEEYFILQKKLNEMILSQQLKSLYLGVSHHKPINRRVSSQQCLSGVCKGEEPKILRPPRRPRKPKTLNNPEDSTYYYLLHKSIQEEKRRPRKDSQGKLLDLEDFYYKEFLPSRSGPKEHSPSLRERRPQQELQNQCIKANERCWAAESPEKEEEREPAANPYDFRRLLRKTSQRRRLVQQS
Protocol details: KINOMEscan competition binding
Protocol conditions: compound 10.0 µM
Attribute measured: kinase still bound, per cent of control (%)

* COc1ccc(CNC(=O)Nc2ncc([N+](=O)[O-])s2)cc1 | 100
* Cn1cc(C2=C(c3ccc(Cl)cc3Cl)C(=O)NC2=O)c2ccccc21 | 95

[P] O=C1Nc2cc(Br)ccc2/C1=C1/Nc2ccccc2/C1=N\O
[Q] Cc1cnc(-c2cnc(NCCNc3ccc(C#N)cn3)nc2-c2ccc(Cl)cc2Cl)[nH]1
Ask: From the items above, decide which of P and Q has the lower kinase still bound, per cent of control reading. Return value: the label identifying the chosen record.
Reply: P

---

System: ERBB3 (human)
Protocol details: KINOMEscan competition binding
Protocol conditions: compound 10.0 µM
Attribute measured: kinase still bound, per cent of control (%)

* Cc1cnc(-c2cnc(NCCNc3ccc(C#N)cn3)nc2-c2ccc(Cl)cc2Cl)[nH]1 | 73
* COc1ccc(CNC(=O)Nc2ncc([N+](=O)[O-])s2)cc1 | 73
* O=C1Nc2cc(Br)ccc2/C1=C1/Nc2ccccc2/C1=N\O | 61
* Cn1cc(C2=C(c3ccc(Cl)cc3Cl)C(=O)NC2=O)c2ccccc21 | 57
